Reference source for all entries: patent US20230117470A1

Target: UniProtKB Q9NR97
Sequence (Q9NR97 27-1041): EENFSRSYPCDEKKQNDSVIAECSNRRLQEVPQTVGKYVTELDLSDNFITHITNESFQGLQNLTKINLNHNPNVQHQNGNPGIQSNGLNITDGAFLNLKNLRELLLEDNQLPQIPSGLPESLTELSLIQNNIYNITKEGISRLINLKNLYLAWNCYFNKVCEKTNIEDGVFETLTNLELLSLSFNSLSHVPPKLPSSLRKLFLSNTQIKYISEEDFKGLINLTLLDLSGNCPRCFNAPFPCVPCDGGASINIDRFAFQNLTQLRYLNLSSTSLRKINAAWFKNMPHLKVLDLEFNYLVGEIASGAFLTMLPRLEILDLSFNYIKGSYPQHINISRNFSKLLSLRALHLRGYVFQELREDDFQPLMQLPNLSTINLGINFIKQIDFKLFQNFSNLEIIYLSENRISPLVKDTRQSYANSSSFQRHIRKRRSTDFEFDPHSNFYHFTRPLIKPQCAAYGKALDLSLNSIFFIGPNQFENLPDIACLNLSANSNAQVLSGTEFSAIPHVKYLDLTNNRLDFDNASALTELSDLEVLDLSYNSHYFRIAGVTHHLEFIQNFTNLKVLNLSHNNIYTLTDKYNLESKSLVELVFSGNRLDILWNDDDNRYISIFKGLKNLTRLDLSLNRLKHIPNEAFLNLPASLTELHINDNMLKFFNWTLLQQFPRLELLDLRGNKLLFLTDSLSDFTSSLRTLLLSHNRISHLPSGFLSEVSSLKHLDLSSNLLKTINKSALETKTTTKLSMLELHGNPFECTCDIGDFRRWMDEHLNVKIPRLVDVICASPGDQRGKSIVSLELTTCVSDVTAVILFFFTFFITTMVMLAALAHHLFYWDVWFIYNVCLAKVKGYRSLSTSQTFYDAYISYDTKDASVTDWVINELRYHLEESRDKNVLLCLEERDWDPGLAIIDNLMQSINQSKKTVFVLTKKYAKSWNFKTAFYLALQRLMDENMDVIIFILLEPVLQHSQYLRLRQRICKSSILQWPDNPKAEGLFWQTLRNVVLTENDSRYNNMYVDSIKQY
Experiment: TLR8 inhibition reporter assay (HEK-Blue cells, SEAP reporter, R848 stimulation)
Details: HEK-Blue cells overexpressing human TLR8, SEAP reporter, R848 15.9 μM
pIC50: −log10 of the molar value.
PROPERTY_MEASURED: pIC50

Worked examples, 3 compounds total:
COc1cc(-c2[nH]nc(-c3cnc(C4CCN(C(C)C)CC4)cn3)c2C(C)C)cn2ncnc12	7.70
Cc1cc(-c2[nH]nc(C(=O)N3CC[C@H](N(C)C)C3)c2C(C)C)cn2ncnc12	9.05
Cc1cc(-c2[nH]nc(C(=O)NC3CCN(C(C)C)CC3)c2C(C)C)cn2ccnc12	7.57

I. Cc1cc(-c2[nH]nc(C(=O)NC3CCNCC3)c2CC(F)(F)F)cn2ncnc12
II. CCN1CCC(c2cnc(-c3n[nH]c(-c4cc(C)c5ncnn5c4)c3C(C)C)nc2)CC1
III. Cc1cc(-c2[nH]nc(C(=O)C(=O)NC3CCN(C(C)C)CC3)c2C(C)C)cn2ncnc12
// smallest pIC50 at index 0, largest at the end Answer with the labels in sequence, matching the requested order.
II, III, I
(II: 7.48, III: 8.03, I: 9.43)

a. Cc1cc(-c2[nH]nc(-c3ncc(C4CCN(C)CC4)cn3)c2C(C)C)cn2ncnc12
b. Cc1cc(-c2[nH]nc(-c3ccc(C(N)=O)cc3)c2C(C)C)cn2ncnc12
c. Cc1cc(-c2[nH]nc(-c3ccc(N(C)C)nc3)c2C(C)C)cn2ncnc12
d. COc1cc(-c2[nH]nc(-c3ccc(C4CN(C(=O)CN(C)C)C4)cc3)c2C(C)C)cn2ncnc12
Rank the 4 compounds: largest pIC50 first, smallest last. Put the labels in the requested order and write them down.
c, b, d, a

a. Cc1cc(-c2[nH]nc(C3CCN(C(C)C)CC3)c2C(C)C)cn2ncnc12
b. CCC(CC)CN[C@H]1CC[C@@H](NC(=O)c2n[nH]c(-c3cc(C)c4ncnn4c3)c2C(C)C)CC1
c. Cc1cc(-c2[nH]nc(C3CCN(C(=O)CN(C)C)CC3)c2C(C)C)cn2ncnc12
d. COc1cc(-c2[nH]nc(-c3ccc(C4CCN(C(=O)CN(C)C)CC4)cn3)c2C(C)C)cn2ncnc12
Task field, ranking: reported pIC50, descending order. // rank by listing labels in the order requested
c, a, b, d
(c: 9.85, a: 9.51, b: 7.64, d: 6.53)

a. Cc1cc(-c2[nH]nc(-c3ccc4c(c3)CCNC4)c2C(C)C)cc(C)n1
b. Cc1cc(-c2[nH]nc(-c3nc4c(s3)CN(C3CCN(C(C)C)CC3)CC4)c2C(C)C)cn2ncnc12
Name the one with the greater pIC50 value, either a or b as given. Select an item and report its label.
a
(a: 9.48, b: 7.64)
